Examples of molecules with documented MIC follow.
# Test system: Staphylococcus pyogenes N.Y.5
measured.quantity: MIC (µg/mL)

{"columns": ["molecule", "experimental.target", "relation.sign", "measured"],
 "data": [
  ["CCC1OC(=O)CC(O)C(C)C(OC2OC(C)C(O)C(N(C)C)C2O)C(CC=O)CC(C)C(OCC2CCCCC2)C=CC(C)=CC1COC1OC(C)C(O)C(OC)C1OC (centres unmarked) [Compound 16, 9-dihydro-9-O-cyclohexylmethyldesmycosin]", "Staphylococcus pyogenes N.Y.5", "=", 0.39],
  ["CCC1OC(=O)CC(O)C(C)C(OC2OC(C)C(O)C(N(C)C)C2O)C(CC=O)CC(C)C(OCc2ccccc2)C=CC(C)=CC1COC1OC(C)C(O)C(OC)C1OC (centres unmarked) [Compound 18, 9-dihydro-9-O-benzyldesmycosin]", "Staphylococcus pyogenes N.Y.5", "=", 0.1],
  ["CCCOC1C=CC(C)=CC(COC2OC(C)C(O)C(OC)C2OC)C(CC)OC(=O)CC(OC(C)=O)C(C)C(OC2OC(C)C(O)C(N(C)C)C2O)C(CC=O)CC1C (centres unmarked)", "Staphylococcus pyogenes N.Y.5", "=", 0.2],
  ["CCOC1C=CC(C)=CC(COC2OC(C)C(O)C(OC)C2OC)C(CC)OC(=O)CC(O)C(C)C(OC2OC(C)C(O)C(N(C)C)C2O)C(CC=O)CC1C (centres unmarked) [Compound 2, 9-dihydro-9-O-ethyldesmycosin]", "Staphylococcus pyogenes N.Y.5", "≤", 0.05],
  ["CCC1OC(=O)CC(OC(C)=O)C(C)C(OC2OC(C)C(O)C(N(C)C)C2O)C(CC=O)CC(C)C(OC)C=CC(C)=CC1COC1OC(C)C(O)C(OC)C1OC (centres unmarked)", "Staphylococcus pyogenes N.Y.5", "=", 0.1],
  ["CCC1OC(=O)CC(O)C(C)C(OC2OC(C)C(O)C(N(C)C)C2O)C(CC=O)CC(C)C(OC)C=CC(C)=CC1COC1OC(C)C(O)C(OC)C1OC (centres unmarked) [Compound 1, 9-dihydro-9-O-methyldesmycosin]", "Staphylococcus pyogenes N.Y.5", "≤", 0.05],
  ["CCC1OC(=O)CC(O)C(C)C(OC2OC(C)C(O)C(N(C)C)C2O)C(CC=O)CC(C)C(OCC2CCC2)C=CC(C)=CC1COC1OC(C)C(O)C(OC)C1OC (centres unmarked) [Compound 15, 9-dihydro-9-O-cyclobutylmethyldesmycosin]", "Staphylococcus pyogenes N.Y.5", "≤", 0.05],
  ["CCC1OC(=O)CC(O)C(C)C(OC2OC(C)CC(N(C)C)C2O)C(CC=O)CC(C)C(OC)C=CC(C)=CC1CN(C)C (centres unmarked)", "Staphylococcus pyogenes N.Y.5", "=", 0.2]
]}

Source: patent US5026832A
